Measured values drawn from patent US20120213844A1 for this set.

# System Tested: T1, sEGFR-MMB (dimeric sEGFR mimetibody) (human)
# T1 construct: Disulfide-linked homodimer: QIQ, sEGFR, flexible linker, J segment, human IgG1 hinge, CH2, CH3; also called sEGFR-Fc; dimeric EGFR
# T1 sequence (chain, as listed by the source limits assumed): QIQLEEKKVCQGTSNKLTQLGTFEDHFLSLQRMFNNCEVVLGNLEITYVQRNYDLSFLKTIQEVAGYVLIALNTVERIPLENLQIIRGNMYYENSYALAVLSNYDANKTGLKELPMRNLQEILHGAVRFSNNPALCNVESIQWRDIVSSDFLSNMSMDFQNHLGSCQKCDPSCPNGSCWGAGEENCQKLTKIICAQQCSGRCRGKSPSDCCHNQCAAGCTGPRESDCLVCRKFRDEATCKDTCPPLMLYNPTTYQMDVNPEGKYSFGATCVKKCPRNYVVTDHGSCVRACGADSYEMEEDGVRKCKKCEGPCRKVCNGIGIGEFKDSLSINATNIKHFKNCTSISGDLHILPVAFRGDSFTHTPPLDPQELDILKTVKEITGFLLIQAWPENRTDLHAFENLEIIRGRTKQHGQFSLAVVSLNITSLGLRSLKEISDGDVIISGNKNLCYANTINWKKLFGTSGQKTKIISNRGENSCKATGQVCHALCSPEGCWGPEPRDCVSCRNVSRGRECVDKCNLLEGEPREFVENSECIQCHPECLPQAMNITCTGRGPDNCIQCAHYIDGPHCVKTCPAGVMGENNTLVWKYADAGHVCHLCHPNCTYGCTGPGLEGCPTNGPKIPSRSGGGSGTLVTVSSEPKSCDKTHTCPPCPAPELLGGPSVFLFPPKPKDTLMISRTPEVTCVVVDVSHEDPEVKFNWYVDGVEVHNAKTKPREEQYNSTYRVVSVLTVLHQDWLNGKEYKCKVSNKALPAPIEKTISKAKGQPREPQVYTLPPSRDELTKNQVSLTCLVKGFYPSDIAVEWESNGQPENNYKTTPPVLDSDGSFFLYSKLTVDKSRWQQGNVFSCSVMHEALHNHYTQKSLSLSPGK
# Measurement Protocol: phage ELISA on coated sEGFR-MMB, chemiluminescence (background typically <200 units)
Readout Name: ELISA
Number first, unit second.

Below, 6 binders whose answers are already recorded.
Binder: GGGWMCFLEGYGASLMCQCGGGSGGSGG (pIX phagemid display, library S20; not shown: M13 phage coat protein pIX (MSVL...)) [phage clone displaying SEQ ID NO: 44 (S20 hit)]
ELISA: 4800 units
--
Binder: GGGPTCDSATRRVLTICADGGGSGGSGG (pIX phagemid display, library S20; not shown: M13 phage coat protein pIX (MSVL...)) [phage clone displaying SEQ ID NO: 43 (S20 hit)]
ELISA: 5420 units
--
Binder: GGGKTCVSTTFDLWFVCFAGGGSGGSGG (pIX phagemid display, library S20; also called PP176; not shown: M13 phage coat protein pIX (MSVL...)) [phage clone P176 (SEQ ID NO: 48)]
ELISA: 37400 units
--
Binder: GGGSVCVGTAFPGWMVCGPGGGSGGSGG (pIX phagemid display, library S20; not shown: M13 phage coat protein pIX (MSVL...)) [phage clone displaying SEQ ID NO: 47 (S20 hit)]
ELISA: 4770 units
--
Binder: GGGDSCCSFLTDGTVVCSLGGGSGGSGG (pIX phagemid display, library S20; not shown: M13 phage coat protein pIX (MSVL...)) [phage clone displaying SEQ ID NO: 45 (S20 hit)]
ELISA: 9540 units
--
Binder: GGGYICTPSDIDSWYICYLGGGSGGSGG (pIX phagemid display, library S20; not shown: M13 phage coat protein pIX (MSVL...)) [phage clone displaying SEQ ID NO: 46 (S20 hit)]
ELISA: 6620 units

Report ELISA for GGGLLCATTSFRDWFVCFTGGGSGGSGG (pIX phagemid display, library S20; not shown: M13 phage coat protein pIX (MSVL...)) [phage clone displaying SEQ ID NO: 49 (S20 hit)] please.
4510 units
